- measured.on: von Hippel-Lindau disease tumor suppressor/Son of sevenless homolog 1/Elongin-B/Elongin-C (Homo sapiens) (UniProt Q07889+P40337+Q15370+Q15369)
- experimental.details: Binding affinity to GST tagged human SOS1(564 to 1049 residues)-6his tagged human VHL (54 to 213 residues)-human ElonginC (17 to 112 residues)-human ElonginB (1 to 104 residues) expressed in Escherichia coli BL21 (DE3) cells assessed as ternary complex formation by measuring maximal HTRF signals incubated for 15 mins by HTRF analysis
The source made the active and inactive calls. The calls are words filed in the database; no cut-off is given here.
One label from this list, please: active, inactive

Worked cases, answers included:
INSERT INTO measurements (compound, label) VALUES
  ('COc1cc2nc(C)nc(N[C@H](C)c3cc(N)cc(C(F)(F)F)c3)c2cc1C1CCN(C(=O)CCCCCC(=O)N[C@H](C(=O)N2C[C@H](O)C[C@H]2C(=O)N[C@@H](C)c2ccc(-c3scnc3C)cc2)C(C)(C)C)CC1', 'active'),
  ('COc1cc2nc(C)nc(N[C@H](C)c3cc(N)cc(C(F)(F)F)c3)c2cc1C1CCN(C(=O)CCCCC(=O)N[C@H](C(=O)N2C[C@H](O)C[C@H]2C(=O)N[C@@H](C)c2ccc(-c3scnc3C)cc2)C(C)(C)C)CC1', 'inactive');

Okay, next one:
Q. Outcome? `COc1cc2nc(C)nc(N[C@H](C)c3cc(N)cc(C(F)(F)F)c3)c2cc1C1CCN(C(=O)CCCCCCC(=O)N[C@H](C(=O)N2C[C@H](O)C[C@H]2C(=O)N[C@@H](C)c2ccc(-c3scnc3C)cc2)C(C)(C)C)CC1`
A. inactive
